Reported pKd values follow for various compounds
Tested system: human TYK2 (JH2domain-pseudokinase) (Homo sapiens (Human))
Protocol description: TYK2 JH2 Domain Binding Assay (KINOMEscan)
pKd: −log10 of the molar value.

1. CNc1cc(Nc2cccnc2OC2CC2)nc2c(C(=O)N[C@H]3CC[C@H]3O)cnn12 [I-402]; 9.00 to 9.70
2. CNc1cc(Nc2cccn([C@H]3CC[C@@](C)(OC)CC3)c2=O)nc2c(C(=O)NC3CC3)cnn12 [I-359]; > 9.70
3. CNc1cc(Nc2cc(Cl)cn(C3CCOCC3)c2=O)nc2c(C(=O)N[C@H]3CC[C@@H]3O)cnn12 [I-712]; > 9.70
4. CNc1cc(Nc2cccc([C@H]3CCCOC3)n2)nc2c(C(=O)NC3COCC3O)cnn12 (stereo partly drawn) [I-695]; > 9.70
5. CNc1cc(Nc2cccn([C@@H]3CCC[C@@H](O)C3)c2=O)nc2c(C(=O)N[C@H]3CC[C@@H]3OC)cnn12 [I-1064]; > 9.70
6. CNc1cc(Nc2cccn([C@H]3CC[C@](C)(OC)CC3)c2=O)nc2c(C(=O)N[C@@H]3CC[C@H]3O)cnn12 [I-1107]; > 9.70
7. CNc1cc(Nc2cccn([C@@H]3CCC[C@H](OC)C3)c2=O)nc2c(C(=O)N[C@@H]3CC[C@H]3O)cnn12 [I-1054]; > 9.70
8. CCn1cc(Cl)cc(Nc2cc(N)n3ncc(C(N)=O)c3n2)c1=O [I-49]; 9.00 to 9.70

*Q* Tell me pKd reported for CNc1cc(Nc2cccn(C(C)C)c2=O)nc2c(C(=O)N[C@@H]3CC[C@H](O)C3)cnn12 [I-1266]
*A* > 9.70

---

Tested system: human TYK2 (JH2domain-pseudokinase) (Homo sapiens (Human), UniProt P29597)
Sequence (P29597 556-888): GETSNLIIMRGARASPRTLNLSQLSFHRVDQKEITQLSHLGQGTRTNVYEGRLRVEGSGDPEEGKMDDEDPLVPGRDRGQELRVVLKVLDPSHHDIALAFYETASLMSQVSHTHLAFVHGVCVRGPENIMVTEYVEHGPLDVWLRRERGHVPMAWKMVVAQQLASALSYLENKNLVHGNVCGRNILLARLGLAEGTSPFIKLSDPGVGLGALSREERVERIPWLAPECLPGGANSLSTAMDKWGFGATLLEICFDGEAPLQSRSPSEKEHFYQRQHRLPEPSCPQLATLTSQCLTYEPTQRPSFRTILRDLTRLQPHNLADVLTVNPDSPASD
Protocol description: TYK2 JH2 Domain Binding Assay (KINOMEscan)
Recorded endpoint: Kd

1. CNc1cc(Nc2cccn([C@@H]3CCCOC3)c2=O)nc2c(C(=O)N[C@H]3CC[C@H]3O)cnn12; < 0.2 nM

Switching to the query record.
*Q* Tell me Kd reported for CNc1cc(Nc2cccnc2OC2CC2)nc2c(C(=O)N[C@@H]3CCC[C@H]3O)cnn12 [I-465]
*A* 0.2 to 1 nM

---

Tested system: human TYK2 (JH2domain-pseudokinase) (Homo sapiens (Human))
Protocol description: TYK2 JH2 Domain Binding Assay (KINOMEscan)
Protocol: Binding constants for compounds of the present invention against the JH2 domain were determined by the following protocol for a KINOMEscan® assay (DiscoveRx). […] The TYK2 (JH2domain-pseudokinase) fusion protein was labeled with a chimeric double-stranded DNA tag containing the NFkB binding site (5′-[…]-3′) fused to an amplicon for qPCR readout, which was added directly to the expression extract (the final concentration of DNA-tag in the binding reaction is 0.1 nM). […]
Recorded endpoint: Kd

Example results:
1) [2H]C([2H])([2H])Oc1ncccc1Nc1cc(NC)n2ncc(C(=O)NCCC3CCCO3)c2n1 (centres unmarked) [I-419]; 1 to 10 nM
2) CNc1cc(Nc2cc(Cl)cn(-c3cnn(C4CC4)c3C)c2=O)nc2c(C(N)=O)cnn12 [I-180]; < 0.2 nM
3) CNc1cc(Nc2cccn(C(C)C)c2=O)nc2c(C(=O)N[C@@H]3CCC[C@@H](O)C3)cnn12 [I-1079]; 0.2 to 1 nM
4) CNc1cc(-c2cn(C3CC3)c3ncccc23)nc2c(C(=O)N[C@H]3CCC[C@]3(C)O)cnn12 [I-1281]; 0.2 to 1 nM
5) CNc1cc(Nc2cccnc2OC2COC2)nc2c(C(=O)NC3CCC3)cnn12 [I-298]; 1 to 10 nM
6) CNc1cc(Nc2cccn([C@H]3CC[C@H](OC)CC3)c2=O)nc2c(C(=O)N[C@@H]3CC[C@@H]3O)cnn12 [I-560]; < 0.2 nM
7) CNc1cc(Nc2cccn(-c3cccc(F)c3)c2=O)nc2c(C(=O)N[C@H]3CC[C@@H]3O)cnn12 [I-1024]; < 0.2 nM

Switching to the query record.
*Q* Specify Kd for CNc1cc(-c2cn(CCN3CCOCC3)c3ncccc23)nc2c(C(=O)N[C@H]3COC[C@H]3O)cnn12 (stereo in doubt) [I-791] , system human TYK2 (JH2domain-pseudokinase) (Homo sapiens (Human)).
*A* 0.2 to 1 nM

---

Tested system: JAK2/JAK2 homdimeric complex (Homo sapiens (Human), UniProt O60674)
Sequence (O60674 whole entry): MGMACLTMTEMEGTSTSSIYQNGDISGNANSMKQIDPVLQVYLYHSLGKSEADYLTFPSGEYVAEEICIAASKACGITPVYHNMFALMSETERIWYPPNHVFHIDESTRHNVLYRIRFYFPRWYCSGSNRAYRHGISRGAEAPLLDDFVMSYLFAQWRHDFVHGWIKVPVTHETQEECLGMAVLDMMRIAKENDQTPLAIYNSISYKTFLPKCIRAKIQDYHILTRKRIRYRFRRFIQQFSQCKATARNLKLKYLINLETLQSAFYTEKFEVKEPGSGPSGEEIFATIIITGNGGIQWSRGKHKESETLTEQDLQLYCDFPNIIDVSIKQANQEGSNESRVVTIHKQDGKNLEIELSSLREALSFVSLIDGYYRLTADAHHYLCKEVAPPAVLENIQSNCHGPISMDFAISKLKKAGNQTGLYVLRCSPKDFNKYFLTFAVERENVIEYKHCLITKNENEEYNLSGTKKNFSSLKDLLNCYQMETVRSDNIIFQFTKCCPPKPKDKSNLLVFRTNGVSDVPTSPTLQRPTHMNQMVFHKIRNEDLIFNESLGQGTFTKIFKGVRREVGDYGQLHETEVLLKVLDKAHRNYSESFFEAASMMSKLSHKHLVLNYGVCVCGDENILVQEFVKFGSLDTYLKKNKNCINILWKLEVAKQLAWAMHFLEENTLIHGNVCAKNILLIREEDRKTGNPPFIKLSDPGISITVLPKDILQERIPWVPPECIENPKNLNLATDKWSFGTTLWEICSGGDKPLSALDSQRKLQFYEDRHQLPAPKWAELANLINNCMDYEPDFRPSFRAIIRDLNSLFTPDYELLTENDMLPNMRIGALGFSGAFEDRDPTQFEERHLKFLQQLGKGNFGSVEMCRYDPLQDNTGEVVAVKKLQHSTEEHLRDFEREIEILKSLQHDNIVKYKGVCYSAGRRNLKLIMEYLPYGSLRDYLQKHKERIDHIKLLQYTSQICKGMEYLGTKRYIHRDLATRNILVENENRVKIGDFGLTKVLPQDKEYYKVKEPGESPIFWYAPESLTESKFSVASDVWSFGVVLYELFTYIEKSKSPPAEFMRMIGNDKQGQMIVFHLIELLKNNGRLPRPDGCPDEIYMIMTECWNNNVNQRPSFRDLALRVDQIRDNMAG
Sequence (P32927 17-897 partner): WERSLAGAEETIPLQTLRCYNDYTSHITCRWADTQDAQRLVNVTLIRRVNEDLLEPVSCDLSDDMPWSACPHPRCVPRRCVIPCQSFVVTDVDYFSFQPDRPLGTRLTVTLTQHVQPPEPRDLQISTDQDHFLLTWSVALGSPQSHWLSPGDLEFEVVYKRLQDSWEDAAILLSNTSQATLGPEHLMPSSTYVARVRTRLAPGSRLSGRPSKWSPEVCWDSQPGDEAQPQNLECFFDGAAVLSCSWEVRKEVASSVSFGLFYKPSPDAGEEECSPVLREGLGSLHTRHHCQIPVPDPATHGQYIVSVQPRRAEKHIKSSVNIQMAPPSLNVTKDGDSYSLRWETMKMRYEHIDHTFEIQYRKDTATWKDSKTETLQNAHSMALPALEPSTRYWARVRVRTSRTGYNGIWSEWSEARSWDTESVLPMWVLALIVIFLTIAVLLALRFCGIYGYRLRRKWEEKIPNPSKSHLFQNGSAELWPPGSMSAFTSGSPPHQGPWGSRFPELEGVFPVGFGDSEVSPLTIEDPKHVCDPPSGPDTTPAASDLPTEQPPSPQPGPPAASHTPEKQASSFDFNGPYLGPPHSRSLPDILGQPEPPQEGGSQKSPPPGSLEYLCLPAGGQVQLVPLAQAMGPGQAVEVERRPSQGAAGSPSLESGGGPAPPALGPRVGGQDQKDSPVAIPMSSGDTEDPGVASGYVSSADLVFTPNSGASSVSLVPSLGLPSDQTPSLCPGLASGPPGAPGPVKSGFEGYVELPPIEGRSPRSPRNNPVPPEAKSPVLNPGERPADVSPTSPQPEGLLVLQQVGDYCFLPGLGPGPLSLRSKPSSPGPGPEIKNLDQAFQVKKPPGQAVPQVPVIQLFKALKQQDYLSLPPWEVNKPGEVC
Protocol description: GM-CSF Induced pSTAT5 in Human PBMC
Applied conditions: GM-CSF 5 ng/mL for 20 minutes, pSTAT5 by MSD, read-out: PBMC_GMCSF_pSTAT5 IC50
pIC50: −log10 of the molar value.
Recorded endpoint: pIC50

1) CNc1cc(Nc2cccn(-c3cnco3)c2=O)nc2c(C(=O)N[C@H]3CC[C@H]3O)cnn12 [I-1017]; < 4.90

*Q* Tell me pIC50 reported for CNc1cc(Nc2cccn([C@H]3CCC[C@H](OC)C3)c2=O)nc2c(C(=O)NC3CC3)cnn12 [I-1025]
*A* < 4.30

*Q* Tell me pIC50 reported for CNc1cc(Nc2cccc([C@H]3CCCOC3)n2)nc2c(C(=O)N[C@H]3C[C@H]3F)cnn12 [I-563]
*A* < 4.30

*Q* Tell me pIC50 reported for CNc1cc(Nc2cccc(N3CCCC3=O)n2)nc2c(C(=O)N[C@H]3C[C@H]3F)cnn12 [I-244]
*A* < 4.90

---

Reported pKd values follow for various molecules
Tested system: human TYK2 (JH2domain-pseudokinase) (Homo sapiens (Human))
Protocol description: TYK2 JH2 Domain Binding Assay (KINOMEscan)
pKd: −log10 of the molar value.

Example results:
1) CNc1cc(-c2cn(C(C)C)c3ncccc23)nc2c(C(=O)N[C@@H]3CC[C@@H]3O)cnn12 [I-578]; > 9.70
2) CNc1cc(Nc2cc(Cl)cn(-c3cnn(C4CC4)c3C)c2=O)nc2c(C(=O)N[C@H]3C[C@H]3F)cnn12; > 9.70
3) CNc1cc(Nc2cccc([C@H]3CCCOC3)n2)nc2c(C(=O)N[C@@H]3COC[C@@H]3O)cnn12 [I-691]; 8.00 to 9.00
4) CNc1cc(Nc2cccnc2OC(CO)CO)nc2c(C(=O)N[C@H]3C[C@H]3F)cnn12; 9.00 to 9.70
5) CNc1cc(Nc2cccc([C@H]3CCCOC3)n2)nc2c(C(=O)N[C@H]3CC[C@H]3O)cnn12; > 9.70

Switching to the query record.
*Q* Tell me pKd reported for `CNc1cc(Nc2cccn(C3CC(F)(F)C3)c2=O)nc2c(C(=O)N[C@@H]3CC[C@@H](OC)C3)cnn12`
*A* 9.00 to 9.70

---

Reported pKd values follow for various compounds
Tested system: human TYK2 (JH2domain-pseudokinase) (Homo sapiens (Human))
Protocol description: TYK2 JH2 Domain Binding Assay (KINOMEscan)
pKd: −log10 of the molar value.

*Q* Specify pKd for CNc1cc(Nc2cccn(C3CCCN(CCC#N)C3)c2=O)nc2c(C(=O)N[C@@H]3C[C@@H]3F)cnn12 (stereo partly drawn) , system human TYK2 (JH2domain-pseudokinase) (Homo sapiens (Human)).
*A* 9.00 to 9.70

*Q* Specify pKd for `CNc1cc(Nc2cccn([C@@H]3CC[C@@H]3O)c2=O)nc2c(C(=O)NC3CC3)cnn12` , system human TYK2 (JH2domain-pseudokinase) (Homo sapiens (Human)).
*A* > 9.70

*Q* Specify pKd for `CNc1cc(Nc2cccn([C@@H]3CC[C@H]3OC)c2=O)nc2c(C(=O)NC3CC3)cnn12` , system human TYK2 (JH2domain-pseudokinase) (Homo sapiens (Human)).
*A* 9.00 to 9.70

*Q* Specify pKd for `CNc1cc(-n2cc(N3CCOCC3)c3ncccc32)nc2c(C(=O)NC3CC3)cnn12` , system human TYK2 (JH2domain-pseudokinase) (Homo sapiens (Human)).
*A* 8.00 to 9.00

*Q* Specify pKd for `CNc1cc(Nc2cccn(-c3ccc(C)nc3)c2=O)nc2c(C(=O)N[C@@H]3C[C@@H]3F)cnn12` , system human TYK2 (JH2domain-pseudokinase) (Homo sapiens (Human)).
*A* > 9.70

*Q* Specify pKd for `CNc1cc(Nc2cccn(-c3cc(C)n(C)n3)c2=O)nc2c(C(=O)N[C@H]3C[C@H]3F)cnn12` , system human TYK2 (JH2domain-pseudokinase) (Homo sapiens (Human)).
*A* > 9.70

---

Tested system: human TYK2 (JH2domain-pseudokinase) (Homo sapiens (Human), UniProt P29597)
Protocol description: TYK2 JH2 Domain Binding Assay (KINOMEscan)
Recorded endpoint: Kd

1) CNc1cc(Nc2cccn([C@H]3CCCOC3)c2=O)nc2c(C(=O)NCC(C)(C)CO)cnn12; < 0.2 nM
2) CNc1cc(Nc2cccn(CCOC3CC3)c2=O)nc2c(C(=O)N[C@@H]3CC[C@H]3O)cnn12 [I-472]; 0.2 to 1 nM
3) CNc1cc(Nc2cccn([C@H]3CC[C@](C)(OC)CC3)c2=O)nc2c(C(=O)NC3CC3)cnn12; < 0.2 nM

*Q* Tell me Kd reported for CNc1cc(Nc2cccn3ccnc23)nc2c(C(=O)N[C@H]3CCC[C@]3(C)O)cnn12 [I-1316]
*A* 1 to 10 nM

*Q* Tell me Kd reported for CNc1cc(Nc2cccn3ccnc23)nc2c(C(=O)N[C@H]3CCC[C@]3(C)O)cnn12 [I-1239]
*A* < 0.2 nM

*Q* Tell me Kd reported for `CNc1cc(Nc2cccn([C@H]3CCCN(CCF)C3)c2=O)nc2c(C(=O)NC3CC3)cnn12`
*A* < 0.2 nM

*Q* Tell me Kd reported for CNc1cc(Nc2cccn([C@H]3CC[C@H](OC)CC3)c2=O)nc2c(C(=O)N[C@H]3COC[C@H]3O)cnn12 [I-746]
*A* 0.2 to 1 nM

*Q* Tell me Kd reported for `CNc1cc(-c2cn(CCN3CCN(C)CC3)c3ncccc23)nc2c(C(=O)N[C@@H]3CC[C@@H]3O)cnn12`
*A* 0.2 to 1 nM

*Q* Tell me Kd reported for CNc1cc(-c2cn(C(C)C)c3ncccc23)nc2c(C(=O)N[C@H]3CC[C@@H]3O)cnn12 [I-586]
*A* < 0.2 nM

Origin of values: patent US10508120B2
